This collection of values is drawn from patent US20250268826A1.

# Experimental details: LNP size and polydispersity index (PDI) by dynamic light scattering (DLS)
# Assay type: physicochemical
# Assay conditions: Table 10; LNP with hEPO mRNA, Lipid:DSPC:Cholesterol:DMG-PEG2k 50:10:38.5:1.5 mol %, N:P ratio 6; DLS
Measure name: Size (nm)

| Compound | Size (nm) |
| --- | --- |
| CCCCCCCC/C=C\CCCCCCCC(=O)OCCN(CCOC(=O)C(CCCCCC)CCCCCCCC)C(=O)CCN(CC)CC (stereo not shown) [Compound 917a] | 82.8 |
| CCCCCCCCC(CCCCCC)C(=O)OCCN(CCOC(=O)CCCCCCC(C)C)C(=O)CCN(CC)CC (stereo not shown) [Compound 917d] | 122 |
| CC/C=C\CCCCC(=O)OCCN(CCOC(=O)C(CCCCCC)CCCCCCCC)C(=O)CCN(CC)CC (stereo not shown) [Compound 917c] | 106.9 |
| CCCCCCCCCC(CCCCCCCCC)C(=O)OCCN(CCOC(=O)C(CCCCCCCCC)CCCCCCCCC)C(=O)CCN(C)CCC [Compound 917g] | 49.2 |
